tested on: SGK1 (human), O00141 [S422D]; conditions: compound 10.0 µM
Sequence (O00141 whole entry S422D, looked up): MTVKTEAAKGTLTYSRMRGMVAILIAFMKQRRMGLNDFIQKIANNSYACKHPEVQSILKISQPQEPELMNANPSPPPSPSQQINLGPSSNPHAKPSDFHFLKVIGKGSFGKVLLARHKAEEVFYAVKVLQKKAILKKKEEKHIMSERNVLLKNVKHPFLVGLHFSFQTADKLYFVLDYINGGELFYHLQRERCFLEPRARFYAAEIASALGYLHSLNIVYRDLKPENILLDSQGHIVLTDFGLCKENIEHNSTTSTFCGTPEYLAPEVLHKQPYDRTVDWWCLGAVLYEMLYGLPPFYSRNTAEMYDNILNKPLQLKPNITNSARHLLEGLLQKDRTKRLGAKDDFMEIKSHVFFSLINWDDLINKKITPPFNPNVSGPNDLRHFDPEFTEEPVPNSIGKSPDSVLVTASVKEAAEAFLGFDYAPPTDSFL
endpoint: per cent of control

                          compoundstructure                  targetsystem  result
0  COC(=O)Nc1ccc(-c2nc(N3CCOCC3)c3cnn(C4CCN(C(=O)OC)CC4)c3n2)cc1  SGK1 (human), O00141 [S422D]     77%
1  COc1ccc(-c2ccc3c(N4CCOCC4)nc(N4C[C@@H](C)O[C@@H](C)C4)nc3n2)cc1CO  SGK1 (human), O00141 [S422D]     64%
2  CCC(=O)N1CCN(c2ccc(-n3c(=O)ccc4cnc5ccc(-c6cnc7ccccc7c6)cc5c43)cc2C(F)(F)F)CC1  SGK1 (human), O00141 [S422D]     60%
3  CC(C)n1nc(-c2cc3cc(O)ccc3[nH]2)c2c(N)ncnc21  SGK1 (human), O00141 [S422D]     69%

* * *

target: MAPK14 (human) (UniProt Q16539); conditions: compound 10.0 µM
Sequence (Q16539 whole entry, looked up): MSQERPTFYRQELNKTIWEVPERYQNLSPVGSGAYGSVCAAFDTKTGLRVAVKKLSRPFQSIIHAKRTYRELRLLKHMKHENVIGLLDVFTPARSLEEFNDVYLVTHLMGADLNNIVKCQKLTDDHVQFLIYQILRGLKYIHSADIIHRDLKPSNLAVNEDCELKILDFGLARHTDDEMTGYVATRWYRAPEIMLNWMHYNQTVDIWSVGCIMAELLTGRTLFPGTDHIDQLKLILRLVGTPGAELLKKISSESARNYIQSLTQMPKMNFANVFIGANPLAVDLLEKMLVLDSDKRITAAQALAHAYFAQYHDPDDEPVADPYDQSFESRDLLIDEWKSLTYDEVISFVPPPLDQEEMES
endpoint: per cent of control (%)

In [3]: df
Out[3]:
                          compoundstructure  quantitativeresult
0  COc1ccc(-c2ccc3c(N4CCOCC4)nc(N4C[C@@H](C)O[C@@H](C)C4)nc3n2)cc1CO                  96
1  CC(C)n1nc(-c2cc3cc(O)ccc3[nH]2)c2c(N)ncnc21                  90
2  CCC(=O)N1CCN(c2ccc(-n3c(=O)ccc4cnc5ccc(-c6cnc7ccccc7c6)cc5c43)cc2C(F)(F)F)CC1                  99
3  COC(=O)Nc1ccc(-c2nc(N3CCOCC3)c3cnn(C4CCN(C(=O)OC)CC4)c3n2)cc1                  88

* * *

biological target: CDK7 (human); assay: KINOMEscan competition binding; settings: compound 10.0 µM
// per cent of control lookup, one value per entry
endpoint: per cent of control

>>> df
                          compoundstructure  targetsystem             endpoint  result
0  COc1ccc(-c2ccc3c(N4CCOCC4)nc(N4C[C@@H](C)O[C@@H](C)C4)nc3n2)cc1CO  CDK7 (human)  per cent of control     73%
1  COC(=O)Nc1ccc(-c2nc(N3CCOCC3)c3cnn(C4CCN(C(=O)OC)CC4)c3n2)cc1  CDK7 (human)  per cent of control     67%
2  CC(C)n1nc(-c2cc3cc(O)ccc3[nH]2)c2c(N)ncnc21  CDK7 (human)  per cent of control     30%
3  CCC(=O)N1CCN(c2ccc(-n3c(=O)ccc4cnc5ccc(-c6cnc7ccccc7c6)cc5c43)cc2C(F)(F)F)CC1  CDK7 (human)  per cent of control     57%

* * *

// kinase still bound, per cent of control lookup, one value per entry
biological target: UniProtKB Q9Y6E0; test: KINOMEscan competition binding; conditions: compound 10.0 µM
Sequence (Q9Y6E0 whole entry, looked up): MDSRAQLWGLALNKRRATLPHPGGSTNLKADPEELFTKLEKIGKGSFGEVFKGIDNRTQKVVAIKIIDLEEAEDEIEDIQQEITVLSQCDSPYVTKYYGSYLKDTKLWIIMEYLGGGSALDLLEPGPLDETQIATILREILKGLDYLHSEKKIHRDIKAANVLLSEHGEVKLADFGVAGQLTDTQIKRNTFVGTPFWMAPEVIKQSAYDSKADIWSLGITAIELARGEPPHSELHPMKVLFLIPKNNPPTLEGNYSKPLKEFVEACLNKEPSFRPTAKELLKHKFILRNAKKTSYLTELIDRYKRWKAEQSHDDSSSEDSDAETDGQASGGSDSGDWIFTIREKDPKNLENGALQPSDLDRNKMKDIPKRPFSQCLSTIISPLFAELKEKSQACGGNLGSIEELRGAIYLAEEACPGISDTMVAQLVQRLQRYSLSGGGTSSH
endpoint: kinase still bound, per cent of control (%)

                          compoundstructure      targetsystem  quantitativeresult
0  CC(C)n1nc(-c2cc3cc(O)ccc3[nH]2)c2c(N)ncnc21  UniProtKB Q9Y6E0                  67
1  COC(=O)Nc1ccc(-c2nc(N3CCOCC3)c3cnn(C4CCN(C(=O)OC)CC4)c3n2)cc1  UniProtKB Q9Y6E0                 100
2  CCC(=O)N1CCN(c2ccc(-n3c(=O)ccc4cnc5ccc(-c6cnc7ccccc7c6)cc5c43)cc2C(F)(F)F)CC1  UniProtKB Q9Y6E0                 100
3  COc1ccc(-c2ccc3c(N4CCOCC4)nc(N4C[C@@H](C)O[C@@H](C)C4)nc3n2)cc1CO  UniProtKB Q9Y6E0                  89
